system: WHIM30 (cells of a triple-negative basal-like breast cancer xenograft); experiment: cell viability (% of vehicle); higher = less cytotoxic; details: 10 µM; 72 h;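 note: PDX cells carrying CMV promoter-driven luciferase, viability read as total photon flux per second by IVIS imaging following D-luciferin, vehicle control 0.1% DMSO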
Exercise: for every item that follows, state its recorded cell viability.
One number for each entry.

compound="CCNC(=O)CCCC=CCC1C(O)CC(O)C1C=CC(O)CCc1ccccc1 (stereo unspecified)" measured_result=148

Here are 7 compounds. What values of cell viability were reported for them?
1. CC(CN(C)C)CN1c2ccccc2CCc2ccccc21.O=C(O)/C=C\C(=O)O (stereo unspecified) [Trimipramine (maleate)]
2. Nc1nc2[nH][nH]nc-2c(=O)n1
3. Clc1ccc(COC(Cn2ccnc2)c2ccc(Cl)cc2Cl)c(Cl)c1 (stereo unspecified)
4. CCCC1CC(C(=O)NC(C(C)Cl)C2OC(SC)C(O)C(O)C2O)N(C)C1 (stereo unspecified)
5. CC(C)(C)NC(=O)C1CC2CCCCC2CN1CC(O)C(Cc1ccccc1)NC(=O)C(CC(N)=O)NC(=O)c1ccc2ccccc2n1.CS(=O)(=O)O (stereo unspecified) [Saquinavir mesylate]
6. CC(NCCCc1cccc(C(F)(F)F)c1)c1cccc2ccccc12.Cl (stereo unspecified) [Cinacalcet HCl]
7. Cc1nc2n(c(=O)c1CCN1CCC(c3noc4cc(F)ccc34)CC1)CCCC2O (stereo unspecified)

Response line:
1. 93.3
2. 119
3. 128
4. 116
5. 103
6. 27.6
7. 127

Here are 8 compounds. What values of cell viability were reported for them?
1. NS(=O)(=O)c1cc2c(cc1Cl)NCNS2(=O)=O [Hydrochlorothiazide]
2. Cc1cc(C#N)cc(C)c1Oc1nc(Nc2ccc(C#N)cc2)nc(N)c1Br
3. Cc1cncc(CN2CCC(=C3c4ccc(Cl)cc4CCc4cccnc43)CC2)c1.O=C(O)C=CC(=O)O [Rupatadine Fumarate]
4. CCCCNc1ccc(C(=O)OCCN(C)C)cc1.Cl [Tetracaine HCl]
5. O=C1CCc2ccc(OCCCCN3CCN(c4cccc(Cl)c4Cl)CC3)cc2N1
6. C=CCNC(N)=S
7. CN(C)C(=O)COC(=O)Cc1ccc(OC(=O)c2ccc(N=C(N)N)cc2)cc1.CS(=O)(=O)O [Camostat Mesilate]
8. COC(=O)Nc1nc2ccc(S(=O)c3ccccc3)cc2[nH]1 (stereo unspecified)

Response line:
139
138
81.2
103
122
130
110
139

* * *

tested on: UCD52 (cells of a triple-negative basal-like breast cancer xenograft); experiment: cell viability (% of vehicle); higher = less cytotoxic; conditions: 10 µM; 72 h
The label 1 (yes) is reserved for cell viability strictly under 80; 0 (no) covers values equal to or above it.

compound="CC(O)C1C(=O)N2C(C(=O)O)=C(SC3CNC(CNS(N)(=O)=O)C3)C(C)C12 (stereo unspecified) [Doripenem]" class_assignment="0 (no)"
compound="Cc1cn(C2CC(O)C(CO)O2)c(=O)[nH]c1=O (stereo unspecified) [Telbivudine]" class_assignment="0 (no)"
compound="CN(C)CCN1C(=O)c2cccc3cc(N)cc(c23)C1=O [Amonafide]" class_assignment="0 (no)"

Prompt line: Is cell viability of CC1=CC(=O)c2ccccc2C1=O [Menadione] strictly below 80?
Response line: 1 (yes)

Prompt line: Is cell viability of Cl.O=C1OC(CN2CCOCC2)CN1N=Cc1ccc([N+](=O)[O-])o1 (stereo unspecified) [Furaltadone HCl] strictly below 80?
Response line: 0 (no)

Prompt line: Is cell viability of COC1=CC=C(/C(C2=CC=C(OC)C=C2)=C(Cl)/C3=CC=C(OC)C=C3)C=C1 [Chlorotrianisene] strictly below 80?
Response line: 0 (no)

Prompt line: Is cell viability of CCOC(=O)c1c(CSc2ccccc2)n(C)c2cc(Br)c(O)c(CN(C)C)c12.Cl [Arbidol HCl] strictly below 80?
Response line: 1 (yes)

Prompt line: Is cell viability of COCCOC(=O)C1=C(C)NC(C)=C(C(=O)OC(C)C)C1c1cccc([N+](=O)[O-])c1 (stereo unspecified) [Nimodipine] strictly below 80?
Response line: 0 (no)

Prompt line: Is cell viability of Cl.Cl.NCCc1cnc[nH]1 [Histamine 2HCl] strictly below 80?
Response line: 0 (no)

Prompt line: Is cell viability of O=c1[nH]c(=O)n(C2CC(O)C(CO)O2)cc1C(F)(F)F (stereo unspecified) [Triflurdine (Viroptic)] strictly below 80?
Response line: 0 (no)

Prompt line: Is cell viability of COc1nc(C)nc(Cl)c1NC1=NCCN1 [Moxonidine] strictly below 80?
Response line: 0 (no)

Prompt line: Is cell viability of CN(N=O)C(=O)NC1C(O)OC(CO)C(O)C1O (stereo unspecified) [Streptozocin] strictly below 80?
Response line: 0 (no)

Prompt line: Is cell viability of C=CC(=O)N1CCC(Oc2cc3c(Nc4ccc(Cl)c(Cl)c4F)ncnc3cc2OC)CC1 [Poziotinib] strictly below 80?
Response line: 1 (yes)

* * *

tested on: HCI09 (cells of a triple-negative luminal androgen receptor type breast cancer xenograft); assay: cell viability (% of vehicle); higher = less cytotoxic; settings: 10 µM; 72 h
MEASUREMENT_LABEL: cell viability
Give bare numbers.

molecule=CC(C)(C)c1nc(-c2cccc(NS(=O)(=O)c3c(F)cccc3F)c2F)c(-c2ccnc(N)n2)s1 measured_result=98.9
molecule="Cl.Clc1ccccc1CN1CCc2sccc2C1 [Ticlopidine HCl]" measured_result=82
molecule="CNC(=C[N+](=O)[O-])NCCSCc1ccc(CN(C)C)o1.Cl [Ranitidine]" measured_result=112
molecule="O=S(=O)(O)NC1CCCCC1 [Cyclamic acid]" measured_result=94.4
molecule=COCCn1c2c([n+](Cc3cnccn3)c1C)C(=O)c1ccccc1C2=O.[Br-] measured_result=28.3

Here are 7 molecules. What values of cell viability were reported for them?
1. COc1ccc(-c2nc3ccc(C4=NNC(=O)CC4C)cc3[nH]2)cc1 (stereo not drawn) [Pimobendan]
2. O=CC(O)C(O)C(O)CO (stereo not drawn) [Xylose]
3. O=C(O)CCC(=O)O.O=C(OC1CN2CCC1CC2)N1CCc2ccccc2C1c1ccccc1 (stereo not drawn) [Solifenacin succinate]
4. O=c1[nH]c(=O)n(C2CC(O)C(CO)O2)cc1F (stereo not drawn) [Floxuridine]
5. Cl.OC(CNCC(O)C1CCc2cc(F)ccc2O1)C1CCc2cc(F)ccc2O1 (stereo not drawn) [Nebivolol]
6. Cc1cccc(CN2CCN(C(c3ccccc3)c3ccc(Cl)cc3)CC2)c1.Cl.Cl (stereo not drawn) [Meclizine 2HCl]
7. CN1CCC(COc2cnc(-c3cccc(Cn4nc(-c5cccc(C#N)c5)ccc4=O)c3)nc2)CC1

Response line:
1: 129; 2: 91.8; 3: 91.8; 4: 103; 5: 86.8; 6: 74; 7: 15.5

* * *

test system: HCI09; experiment: cell viability (% of vehicle); higher = less cytotoxic; details: 10 µM; 72 h
Where a name gives a salt, the structure may show the parent alone.
The label 1 is reserved for cell viability strictly under 80; -1 covers values equal to or above it.

Look over these answered cases.
compound="CCN(CC)CCOCCOC(=O)C(CC)(CC)c1ccccc1.O=C(O)CC(O)(CC(=O)O)C(=O)O [Oxeladin Citrate]" class_assignment=-1
compound="CC1(C)O[C@@H]2C[C@H]3[C@@H]4CCC5=CC(=O)C=C[C@]5(C)[C@@]4(F)[C@@H](O)C[C@]3(C)[C@]2(C(=O)CO)O1 [Triamcinolone Acetonide]" class_assignment=-1
compound="CC(CN1c2ccccc2Sc2ccccc21)N(C)C (configuration not stated) [Promethazine HCl]" class_assignment=1
compound="CCC1(O)CC2CN(CCc3c([nH]c4ccccc34)C(C(=O)OC)(c3cc4c(cc3OC)N(C)C3C(O)(C(=O)OC)C(OC(C)=O)C5(CC)C=CCN6CCC43C65)C2)C1 (configuration not stated)" class_assignment=1
compound=CCCCC1=NC2(CCCC2)C(=O)N1Cc1ccc(-c2ccccc2-c2nn[nH]n2)cc1 class_assignment=-1
compound="CNC1C(OC2C(OC3C(O)C(O)C(N=C(N)N)C(O)C3N=C(N)N)OC(C)C2(O)C=O)OC(CO)C(O)C1O.CNC1C(OC2C(OC3C(O)C(O)C(N=C(N)N)C(O)C3N=C(N)N)OC(C)C2(O)C=O)OC(CO)C(O)C1O.O=S(=O)(O)O.O=S(=O)(O)O.O=S(=O)(O)O (configuration not stated) [Streptomycin sulfate]" class_assignment=-1
compound=S=P(N1CC1)(N1CC1)N1CC1 class_assignment=-1
compound="Cc1nc(NC(=O)N2CCCC2C(N)=O)sc1-c1ccnc(C(C)(C)C(F)(F)F)c1 (configuration not stated)" class_assignment=1
compound="CN1CCN(CCCN2c3ccccc3Sc3ccc(C(F)(F)F)cc32)CC1.Cl.Cl [Trifluoperazine 2HCl]" class_assignment=1
compound="CC(OC1OCCN(Cc2nc(=O)n(P(=O)(O)O)[nH]2)C1c1ccc(F)cc1)c1cc(C(F)(F)F)cc(C(F)(F)F)c1.CNCC(O)C(O)C(O)C(O)CO.CNCC(O)C(O)C(O)C(O)CO (configuration not stated) [Fosaprepitant dimeglumine salt]" class_assignment=1

Prompt line: Is cell viability of "CC(=O)OCC(CCn1cnc2cnc(N)nc21)COC(C)=O" strictly below 80?
Response line: -1
